- targetEntity: Lysophosphatidic acid receptor 1 (Homo sapiens)
- Sequence (Q92633 whole entry): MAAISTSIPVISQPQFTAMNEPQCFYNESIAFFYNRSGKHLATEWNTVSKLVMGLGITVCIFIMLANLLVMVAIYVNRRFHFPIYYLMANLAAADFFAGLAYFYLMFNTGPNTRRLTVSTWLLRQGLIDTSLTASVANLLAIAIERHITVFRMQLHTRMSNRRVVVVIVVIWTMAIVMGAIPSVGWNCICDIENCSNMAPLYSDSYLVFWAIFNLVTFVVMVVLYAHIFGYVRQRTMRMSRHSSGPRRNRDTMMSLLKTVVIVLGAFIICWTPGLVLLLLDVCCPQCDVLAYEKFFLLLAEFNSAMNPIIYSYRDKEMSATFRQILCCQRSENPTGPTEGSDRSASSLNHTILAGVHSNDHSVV
- testMethodNotes: Agonist activity at LPA1 receptor expressed in rat RH7777 cells assessed as LPA-induced intracellular calcium response
parameterMeasured: EC50

Prompt: Provide EC50 value for the following molecule: `CCOC(=O)c1ccc(/C=C/c2ccc(S(=O)(=O)O)cc2)cc1`
Completion: > 12.3 µM

* * *

- targetEntity: Lysophosphatidic acid receptor 3 (Homo sapiens)
- Sequence (Q9UBY5 whole entry): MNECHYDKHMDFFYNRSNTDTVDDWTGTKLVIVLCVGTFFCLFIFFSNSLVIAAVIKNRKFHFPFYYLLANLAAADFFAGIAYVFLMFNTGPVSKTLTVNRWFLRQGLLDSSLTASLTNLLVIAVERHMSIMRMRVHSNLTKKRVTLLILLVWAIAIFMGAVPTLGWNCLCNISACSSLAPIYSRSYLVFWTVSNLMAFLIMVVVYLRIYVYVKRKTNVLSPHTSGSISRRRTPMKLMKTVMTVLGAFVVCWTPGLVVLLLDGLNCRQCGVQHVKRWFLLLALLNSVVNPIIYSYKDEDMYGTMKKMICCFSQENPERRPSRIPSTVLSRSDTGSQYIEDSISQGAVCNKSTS
- testMethodNotes: Inhibition of LPA3 receptor
Listed next: entries and their corresponding IC50.
Respond numerically; units are nM and should not be typed.

1) CCCCCCC(=O)OC[C@H](COP(O)(O)=S)OC(=O)CCCCCC
184

Prompt: Please respond with reported IC50 (system Lysophosphatidic acid receptor 3 (Homo sapiens)) for `CCCCCCC(=O)OC[C@H](COP(=O)(O)O)OC(=O)CCCCCC` .
Completion: 143

* * *

- targetEntity: UniProt Q9UBY5
- testMethodNotes: Antagonist activity at LPA3 receptor expressed in rat RH7777 cells assessed as inhibition of LPA-induced intracellular calcium concentration
- Type: functional, cell-based
Ki: recorded values
The reply must contain the numeric value and, after it, the unit.

Prompt: Return Ki for the following compound: `O=C(O)/C=C\C(=O)Nc1cccc(NC(=O)c2ccccc2)c1`
Completion: 317 nM

Prompt: Give recorded Ki. `O=C(O)/C=C/C(=O)Nc1ccc(Oc2cccc(Oc3ccc(NC(=O)/C=C/C(=O)O)cc3)c2)cc1`
Completion: 310 nM

Prompt: Supply reported Ki belonging to this compound: `O=C(O)/C=C/C(=O)Nc1ccc(-c2ccc(NC(=O)/C=C/C(=O)O)cc2)cc1`
Completion: 7020 nM

* * *

- targetEntity: Lysophosphatidic acid receptor 2 (Homo sapiens)
- Sequence (Q9HBW0 whole entry): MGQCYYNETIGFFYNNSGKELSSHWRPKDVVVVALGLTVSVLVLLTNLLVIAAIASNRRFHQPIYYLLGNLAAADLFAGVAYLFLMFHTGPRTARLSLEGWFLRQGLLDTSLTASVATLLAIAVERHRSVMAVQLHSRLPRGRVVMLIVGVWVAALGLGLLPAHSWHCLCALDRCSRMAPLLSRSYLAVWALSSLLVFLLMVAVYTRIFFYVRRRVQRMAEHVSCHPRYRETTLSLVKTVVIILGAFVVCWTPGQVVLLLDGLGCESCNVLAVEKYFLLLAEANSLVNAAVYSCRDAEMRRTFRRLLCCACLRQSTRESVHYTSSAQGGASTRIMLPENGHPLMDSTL
- testMethodNotes: Antagonist activity at LPA2 receptor expressed in rat RH7777 cells assessed as inhibition of LPA-induced intracellular calcium concentration
- Format: functional, cell-based
parameterMeasured: pIC50
As a rule, pIC50 stands for the negative log10 of the concentration, concentration in M.

Take a look at these entries with their results.
1) O=C(O)/C=C/C(=O)Nc1cccc(NC(=O)/C=C/C(=O)O)c1
7.66
2) O=C(O)/C=C/C(=O)Nc1ccc(-c2ccc(NC(=O)/C=C/C(=O)O)cc2)cc1
7.55

Shifting focus to the molecule that follows.
Prompt: Return pIC50 for the following molecule: `O=C(O)/C=C/C(=O)Nc1ccc(Oc2cccc(Oc3ccc(NC(=O)/C=C/C(=O)O)cc3)c2)cc1`
Completion: 8.05

All values here come from ChEMBL document CHEMBL1150359.
